# Lookup of reported % displacement of pre-bound ligand keyed by entry
# system under test: T1, membrane-bound full-length human HVEM on stable HVEM-transfected HEK293F cells (clone no. 128) (human, UniProt Q92956 39-283)
# T1 construct: The same cDNA was also expressed on Sf9 insect cells; also called TNFRSF14; CD270
# T1 sequence: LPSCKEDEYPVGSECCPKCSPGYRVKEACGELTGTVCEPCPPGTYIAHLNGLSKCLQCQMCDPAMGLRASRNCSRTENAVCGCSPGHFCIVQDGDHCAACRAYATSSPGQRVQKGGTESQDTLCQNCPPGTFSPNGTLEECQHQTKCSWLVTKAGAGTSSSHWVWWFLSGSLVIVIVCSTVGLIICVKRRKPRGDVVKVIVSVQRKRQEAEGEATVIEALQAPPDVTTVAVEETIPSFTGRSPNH
# test method notes: FACS, biotinylated BTLA-Fc pre-bound, then Ab 20 µg/mL

binder	% displacement of pre-bound ligand
chimeric mouse/human IgG4/kappa anti-human HVEM antibody no. 49G4 (antibody, V domains shown, 48/49 within the entry; Stabilized human IgG4 (S239P) already in the entry; also called chimeric 49G4) VH: EVQLQQSGAELVKPGASVKLSCRASGFNIKDTYMHWVKQRPEQGLEWIGRIDPARGNTKYDPKFQGKATITADTSSNTAYLQLSSLTSEDTAVYYCASAMDYWGQGTSVTVSS VL: DVLMTQTPLSLPVSLGDQASISCRSSQSIVHSNGNTYLEWFLQKPGQSPKLLIYKVSNRFSGVPDRFSGSGSGTDFTLKISRVEAEDLGVYYCFQGSHVPLTFGAGTKLELKR	> 95%
chimeric mouse/human IgG4/kappa anti-human HVEM antibody no. 11H7 (antibody, V domains shown, 40/41 within the entry; Stabilized human IgG4 (S239P) already in the entry; also called chimeric 11H7) VH: QVQLKQSGPGLVQPSQSLSITCTVSGFSLTIYGVHWVRQSPGKGLEWLGVIWSGGSTDYNAAFISRLSISKDNSKSQVFFKMNSLQANDTAIYYCARRDYGSRSFYYAMDYWGQGTSVTVSS VL: EIVLTQSPALMAASPGEKVTITCSVSSSISSSNLHWYQQKSETSPKPWIYGTSNLASGVPVRFSGSGSGTSYSLTISSMEAEDAATYYCQQWSSYPLTFGGGTKLEIKR	> 95%
chimeric mouse/human IgG4/kappa anti-human HVEM antibody no. 36H12 (antibody, V domains shown, 16/17 within the entry; Stabilized human IgG4 (S239P) already in the entry; also called chimeric 36H12) VH: EVQLQQSGAGLVKPGASVKLSCTASGFNIKDTYMHWVRQRPEQGLEWIGRIDPATANTKYDPKFQGKATLTTDTSSNTAYLQLSSLTSEDTAVYYCVTYGYDVSWFAYWGLGALVTVSA VL: DVLMTQTPLSLPVSLGDQASISCRSSQSIVHSNGITYLEWYLQKPGQSPKLLIYKVSNRFSGVPDRFSGSGSGTDFTLKISRVEAEDLGVYYCFQGSHVPLTFGAGTKLELKR	> 95%

Switching to the query record.
Query: Recorded % displacement of pre-bound ligand of chimeric mouse/human IgG4/kappa anti-human HVEM antibody no. 45H6 (antibody, V domains shown, 24/25 within the entry; Stabilized human IgG4 (S239P) already in the entry; also called chimeric 45H6) VH: DVQLVESGGGLVQPGGSRKLSCAASGFTFSSFGMHWVRQAPEKGLEWVAYISSGNSNIYYVDTVKGRFTISRDNPKNTLFLQMTSLRSEDTAMYYCARKRAYGDYSGFSMDYWGQGTSVTVSS VL: DIVMTQSQKFMSTSVGDRVSVTCKASQNVDTNVAWYQQKPGQSPKALIYSASYRYSGVPDRFTGSGSGTDFTLTISNVQSEDLAEYFCQQYNKFPLTFGGGTKLEIKR , please.
Reply: > 95%
